Data origin, for the record: patent US20200079833A1

Biological target: GLP-1 receptor (GLP-1R) (human, UniProt P43220 24-463)
Assay: cell-based or functional assay
Starred links: 1 amine or outer side, 2 acyl side, 3 side chain; linkers in the order of their positions; H or OH if unused. Non-standard residues stand in square brackets, D forms with d. Groups on a side chain read outwards from the residue. Primed or numbered codes have the meaning given here. No end group written: not given here. *: point of attachment. γGlu = O=C(O)[C@H](CCC(=O)[*:2])N[*:1]; Stearoyl = CCCCCCCCCCCCCCCCCC(=O)*; αMeF = C[C@](N)(Cc1ccccc1)C(=O)O; αMeK = C[C@](N)(CCCCN)C(=O)O; αMeS = C[C@](N)(CO)C(=O)O; PEG2′ = not defined here; Aib = CC(C)(N)C(=O)O
measured_metric: cAMP Mean pM GLP-1R
A bare number is not enough; add the unit after it.

H[Aib]EK([PEG2′-PEG2′-γGlu-Stearoyl])S[αMeF]TSDV[αMeS]S[αMeF]LEGEAA[αMeK]E[αMeF]IA[αMeF]VV[αMeK]GG-NH2 [SEQ ID NO 125] : 24900 pM
H[Aib]EGS[αMeF]TSDV[αMeS]S[αMeF]LEGK([PEG2′-PEG2′-γGlu-Stearoyl])AA[αMeK]E[αMeF]IA[αMeF]VV[αMeK]GG-NH2 [SEQ ID NO 112] : 6 pM
H[Aib]EGS[αMeF]TSDV[αMeS]S[αMeF]LEGEK([PEG2′-PEG2′-γGlu-Stearoyl])A[αMeK]E[αMeF]IA[αMeF]VV[αMeK]GG-NH2 [SEQ ID NO 111] : 17 pM

Now for the binder whose cAMP Mean pM GLP-1R we want.
Suppose we examine the binder H[Aib]EGS[αMeF]TSDVK([PEG2′-PEG2′-γGlu-Stearoyl])S[αMeF]LEGEAA[αMeK]E[αMeF]IA[αMeF]VV[αMeK]GG-NH2 [SEQ ID NO 118] ; what cAMP Mean pM GLP-1R value has been reported?
783 pM
